B1: C9orf9 (parent)
chain: TKHKCRQLTKASLKPRGCSKPPWR

variants of: B1; test: protein stability index of a GFP-peptide fusion (GPS, HEK-293T) (PSI 1-6); higher = more stable; conditions: c terminus: a fixed tail appended;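 also: lentivirally expressed fusions sorted by FACS into six bins by GFP to DsRed ratio, PSI derived from sequencing read proportions per bin multiplied by bin number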
Entries and their protein stability index
Respond using a number only.

• S12Y = 2.06
• L8W = 2.43
• C5N = 2.15
• R16C = 2.75
• C5G = 2.21
• H3P = 3.03
• P15L = 2.01
• P21F = 2.79

Please turn your attention to the following entry.
Input: Quick one: protein stability index of R6T ?
Output: 2.4

FYI, the data here is from the supplement of paper PMC10567573.
